- test system: SARS-CoV (2003) spike protein borne on lentiviral pseudovirus (SARS-CoV (2003), UniProt P59594 14-1255)
- assay procedure: cell-based or functional assay
In plain terms, low Pseudo Neut, SARS-CoV 2003 IC50, meaning strictly below 100 nM, gives label 1, and everything else gives label 0.

| binder | group |
| --- | --- |
| antibody 1859 (antibody, V domains shown) VH: EVQLVESGGGLVKPGGSLRLSCAASGFSFNTYTMNWVRQAPGKGLEWVSYISSSSSYKYYSDSVKGRFSVSRDNAKKSLYLQMNGLRAEDTAVYYCARDGYCPNGVCTYYGMDVWGQGTTVTVSL VL: EIVMTQSPATLSVSPGERATLSCRASQSVSSNLAWYQQKPGQAPRLLIYGASTRATGIPARFSGSGSGTEFTLTISGLQSEDFAVYFCQQYSKWPPAYTFGQGTKLEIK | label 0 |
| antibody 1871 (antibody, V domains shown) VH: EVQLVESGGGLVKPGGSLRLSCVASGFSFSIYSMNWVRQAPGKGLEWVSYISSSSSYKYYADSVKGRFSVSRDNAKNSLYLQLNGLRAEDTAVYYCARDGYCPKGVCTYYGMDVWGQGTTVTVSA VL: EIVMTQSPATLSVSPGERVTLSCRASQSVRSRLAWFQQKPGQAPRLLIYDASIRATGIPARFSGSGSGTEFTLIISSLQSEDFAVYYCQQYDNWPPAYTFGQGTKLEIK | label 1 |
| antibody 1823 (antibody, V domains shown) VH: EVQLVESGGGLVKPGGSLRLSCVASGFSFGLYTMNWVRQAPGKGLEWVSYISSSTSYKYYADSVKGRVSVSRDNAKNSLYLQLNGLRVEDTAVYYCARDGYCPNGICTYYGMDVWGQGTTVTVSA VL: EIVMTQSPATLSVSPGERATLSCRASQSVSSNLAWYQQKPGQAPRLLIYGASTRATGIPARFSGSGSGTEFTLTITGLQSEDFAVYYCQQYDKWPPAYSFGQGTKVEIK | label 0 |
| antibody 1963 (antibody, V domains shown) VH: QVQLVQSGAEVKKPGASVKVSCKASGYTFTSNYIHWLRQAPGQGLEWMGIIKPSGTSTISAQKFRGRVAMTRDTSTSTVYMELSSLRFEDTAIYYCARDAKRALETWGQGTMVTVSS VL: QSVLTQPPSVSAAPGQKVTISCSGSSSNIGNNYVSWYQQLPGTAPKLLIYDNNKRPSGIPDRFSGSRSGTSATLGITGLQTGDEADYYCGTWDSSLSAWVFGGGTKLTVL | label 1 |
